Just for reference, PubChem BioAssay (NCI) is where these values come from.

test system: PC-3 prostate; experiment: NCI tumour cell line growth inhibition, 48 h; in the data active means GI50 below about 0.43 µM; inactive means the rest
Possible outcomes: yes (1) (active), no (0) (inactive)

O=C1N[C@@H]2[C@@H](O)[C@@H](O)[C@H](O)C[C@H]2c2cc3c(c(O)c21)OCO3 = yes (1)
O=C(N/N=C(\CN1CCN(c2cc3[nH]cc(C(=O)O)c(=O)c3cc2F)CC1)c1ccc(Cl)cc1)c1ccncc1 = no (0)
C[n+]1c2ccccc2c(Nc2ccc(N3CCCCC3)cc2)c2[nH]c3ccccc3c21 = yes (1)
C=C1C(=O)O[C@H]2[C@H]1CC/C(COC(=O)/C=C\C(=O)NCc1ccc(Cn3c(=O)sn(CCCI)c3=O)cc1)=C\CC[C@@]1(C)O[C@@H]21 = no (0)
O=C(Nc1cccc(Cl)c1)Nc1nccs1 = no (0)
COc1ccc2c(c1)[n+]([O-])c(C#N)c(NC(=O)c1cccs1)[n+]2[O-] = no (0)
